Recorded values, source patent US11466036B2.

// reported half-life per item
# method: Liver microsomal stability test, mouse
# Assay type: in vitro ADME, CD-1 mice
# cond: CD-1; mouse (M) liver microsomes; read-out: Liver microsomal stability (T1/2, min)

{"columns": ["compound", "half-life"],
 "data": [
  ["CC(C)C[C@H](NC(=O)CNC(=O)[C@@H]1CCN1c1nc(C(F)(F)F)cs1)B(O)O", "37.7 min"],
  ["CC(C)C[C@H](NC(=O)CNC(=O)[C@@H]1CCN1c1ccc(F)cc1F)B(O)O (single isomer, unassigned)", "67.4 min"],
  ["CC(C)C[C@H](NC(=O)CNC(=O)[C@@H]1CCN1c1ccc(F)cc1)B(O)O", "43.5 min"]
]}

---

# System: MDR1
# method: Cell membrane permeability test on MDR1-MDCK II cells
# Type: in vitro ADME
# cond: dog, MDCK-MDR1, pH 7.4; Papp B to A/Papp A to B
// reported efflux ratio at 150 min, 2 μM per item
value-kind: efflux ratio at 150 min, 2 μM

{"columns": ["compound", "observed-value"],
 "data": [
  ["CC(C)C[C@H](NC(=O)CNC(=O)[C@@H]1CCN1c1nc(C(F)(F)F)cs1)B(O)O", 9.33],
  ["CC(C)C[C@H](NC(=O)CNC(=O)[C@@H]1CCN1c1ccc(F)cc1F)B(O)O (single isomer, unassigned)", 19.3]
]}

---

# System: MDR1
# method: Cell membrane permeability test on MDR1-MDCK II cells
# Type: in vitro ADME
# cond: dog, MDCK-MDR1; 2 μM, 150 minutes, pH=7.4
# Experimental: Experimental Example 3: Cell Membrane Permeability Test for Compounds Test compounds were evaluated for cell membrane permeability on MDR1-MDCK II cells. Test compounds (10 mM DMSO solution of compound) were each diluted with transfer buffer (HBSS with 10 mM Hepes, pH=7.4) and formulated into samples at a final concentration of 2 μM, and then bidirectional (A-B and B-A) administration was performed. […]

{"columns": ["compound", "Papp A→B at 150 min, 2 μM"],
 "data": [
  ["CC(C)C[C@H](NC(=O)CNC(=O)[C@@H]1CCN1c1nc(C(F)(F)F)cs1)B(O)O", "0.24 ×10⁻⁶ cm/s"],
  ["CC(C)C[C@H](NC(=O)CNC(=O)[C@@H]1CCN1c1ccc(F)cc1F)B(O)O (single isomer, unassigned)", "0.38 ×10⁻⁶ cm/s"]
]}

---

// reported Papp B→A at 150 min, 2 μM per item
# Test system: MDR1
# method: Cell membrane permeability test on MDR1-MDCK II cells
# Type: in vitro ADME
# cond: dog, MDCK-MDR1; 2 μM, 150 minutes, pH=7.4
value-kind: Papp B→A at 150 min, 2 μM (×10⁻⁶ cm/s)

{"columns": ["compound", "measured-on", "value-kind", "observed-value"],
 "data": [
  ["CC(C)C[C@H](NC(=O)CNC(=O)[C@@H]1CCN1c1nc(C(F)(F)F)cs1)B(O)O", "MDR1", "Papp B→A at 150 min, 2 μM", 2.24],
  ["CC(C)C[C@H](NC(=O)CNC(=O)[C@@H]1CCN1c1ccc(F)cc1F)B(O)O (single isomer, unassigned)", "MDR1", "Papp B→A at 150 min, 2 μM", 7.32]
]}

---

# method: Liver microsomal stability test, rat
# Assay type: in vitro ADME, SD rats
# cond: SD; rat (R) liver microsomes; read-out: Liver microsomal stability (T1/2, min)

{"columns": ["compound", "half-life [min]"],
 "data": [
  ["CC(C)C[C@H](NC(=O)CNC(=O)[C@@H]1CCN1c1ccc(F)cc1)B(O)O [Compound 1-9]", 42.1],
  ["CC(C)C[C@H](NC(=O)CNC(=O)[C@@H]1CCN1c1ccc(F)cc1F)B(O)O (single isomer, unassigned) [Compound 4-9]", 43.1],
  ["CC(C)C[C@H](NC(=O)CNC(=O)[C@@H]1CCN1c1nc(C(F)(F)F)cs1)B(O)O [Compound 2-9]", 26.5]
]}
